Reported pIC50 is given for each of the following compounds.
subjectOfTest: human CCR6 (Homo sapiens, UniProt P51684)
Construct: expressed in transfected cells; host or cells: HEK-293
Sequence (P51684 1-374): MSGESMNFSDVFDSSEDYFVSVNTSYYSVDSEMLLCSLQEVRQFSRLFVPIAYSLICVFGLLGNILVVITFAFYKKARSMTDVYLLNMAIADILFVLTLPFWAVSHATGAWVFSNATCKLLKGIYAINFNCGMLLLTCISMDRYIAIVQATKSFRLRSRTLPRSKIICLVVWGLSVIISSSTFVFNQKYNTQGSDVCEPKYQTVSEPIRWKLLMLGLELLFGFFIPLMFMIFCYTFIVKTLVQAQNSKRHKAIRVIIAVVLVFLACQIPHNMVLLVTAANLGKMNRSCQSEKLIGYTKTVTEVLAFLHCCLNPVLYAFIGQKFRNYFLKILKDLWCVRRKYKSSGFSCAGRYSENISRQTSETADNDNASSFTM
test: FLIPR assay (inhibition of CCL20-induced calcium signal)
Format: cell-based
conditionContext: HEK-293 cells expressing human CCR6; mean values where determined several times; read-out: FLIPR IC50
Scale note: pIC50 = -log10(concentration in M).

Consider the following illustrative entries.
>>> result("CCOC(=O)N(C)C1(c2nc(-c3cncc([C@@](O)(c4ccc(C(C)C)cc4)C4(C)CN(C)C4)c3)no2)CC1")
6.76
>>> result("CC(C)c1ccc([C@](O)(c2cncc(CCc3cc4ccccc4[nH]3)c2)C2(C)CN(C)C2)cc1")
7.72
>>> result("CC(C)C(=O)N1CCC(O)(c2nc(-c3cncc([C@@](O)(c4ccc(C(C)C)cc4)C4(C)CN(C)C4)c3)no2)CC1")
6.88
>>> result("CC(C)c1ccc([C@](O)(c2cncc(-c3noc(C4CC(=O)N(C(C)C)C4)n3)c2)C2(C)CN(C)C2)cc1 (single isomer, unassigned) [Example 512]")
7.21

Could you share which pIC50 value was measured for CC(C)c1ccc([C@](O)(c2cnnc(N3CC(c4ccccn4)CC3=O)c2)C2(C)CN(C)C2)cc1 (stereo partly drawn) ?
6.93

Can you check COCCC1CCN(c2cc([C@@](O)(c3ccc(C(C)C)cc3)C3(C)CN(C)C3)cnn2)C1=O (stereo partly drawn) next?
6.75

Try the compound CN1CC(C)(C(O)(c2ccc(OC(F)(F)F)cc2)c2ccc(OC3CCOCC3)nc2)C1 (stereo not drawn)
7.00

Lookup CC(=O)N1CC[C@@H](c2nc(-c3cncc([C@@](O)(c4ccc(C(C)C)cc4)C4(C)CN(C)C4)c3)no2)C1
6.95

Would you kindly repeat that for CC(C)c1ccc(C(O)(c2cncc(OCCc3ccccn3)c2)C2(C)CN(C)C2)cc1 (stereo not drawn) ?
7.48
